In this section we review reported IC50 values for a set of compounds.
- Target Entity: Cytochrome P450 2A6 (Homo sapiens)
- Assay Details: Inhibition of human CYP2A6 in baculovirus-infected insect cell system using […] as substrate preincubated for 10 mins by fluorescence assay
Quick note: give the figure in µM, leave out the unit.

• CNCc1cc2ccccc2s1 = 0.5

## Input Fill in the blank: the reported IC50 of OCc1csc2ccccc12 is ____.
## Output 37

## Input Also need O=Cc1cc2ccccc2[nH]1 , thanks.
## Output 11

## Input Also need Cc1csc2ccc(Cl)cc12 , thanks.
## Output 88

## Input Also need N#CCc1csc2ccc(Cl)cc12 , thanks.
## Output 51

## Input Also need Cc1ccc(C#N)cc1 , thanks.
## Output 8.1

## Input Also need CNCc1cc2cccnc2s1 , thanks.
## Output 2.2

## Input Also need O=Cc1cc2cccnc2s1 , thanks.
## Output 8

## Input Also need Brc1ccc2[nH]ccc2c1 , thanks.
## Output 7.4

## Input Also need O=Cc1cc2cc(Br)ccc2o1 , thanks.
## Output 72

## Input Also need O=Cc1c[nH]c2ccccc12 , thanks.
## Output 79

## Input Also need Cn1ccc2cc(C=O)ccc21 , thanks.
## Output 0.68

## Input Also need O=Cc1cccc2ccsc12 , thanks.
## Output 11

## Input Also need Cc1ccc2sc(C=O)cc2c1 , thanks.
## Output 3.4

## Input Also need O=Cc1cc2ccncc2s1 , thanks.
## Output 0.4

## Input Also need O=Cc1ccc2occc2c1 , thanks.
## Output 0.4

* * *

- Target Entity: Cytochrome P450 2A6 (Homo sapiens, UniProt P11509)
- Assay Details: Irreversible inhibition of human CYP2A6 in baculovirus-infected insect cell system using […] as substrate incubated for 10 mins by fluorescence assay
- Conditions Used: read-out: Ki(app)
Measured Property: pKi
Value format note: pKi is -log10 of concentration (mol/L); just state the number.

- O=Cc1csc2ccc(Br)cc12: 5.82

## Input Give Cytochrome P450 2A6 (Homo sapiens, UniProt P11509) pKi for O=Cc1cc2ccccc2s1
## Output 6.89

* * *

- Target Entity: Cytochrome P450 2A6 (Homo sapiens)
- Assay Details: Inhibition of human CYP2A6 in baculovirus-infected insect cell system using […] as substrate incubated for 30 mins prior to substrate addition measured after 10 mins by fluorescence assay
- Conditions Used: human, 10 min
Measured Property: inhibition (INH)

- Cn1ccc2cc(C=O)ccc21: Active
- NC(=S)c1csc2ccncc12: Active
- NCc1csc2ccc(Br)cc12: Active

* * *

- Target Entity: Cytochrome P450 2A6 (Homo sapiens)
- Assay Details: Inhibition of human CYP2A6 in baculovirus-infected insect cell system using […] as substrate incubated for 30 mins prior to substrate addition measured after 10 mins by fluorescence assay
- Conditions Used: human, 10 min
Measured Property: inhibition (INH)

# count of solved cases: 5
• CNCc1cc2ccccc2s1 = Active
• NCc1cc2cnccc2s1 = Active
• O=Cc1c[nH]c2ccccc12 = Active
• CN(C)Cc1cc2cnccc2s1 = Active
• O=Cc1cc2ccncc2s1 = Active

## Input Fill in the blank: the reported inhibition (INH) of CNCc1cc2cnccc2s1 is ____.
## Output Active

## Input Also need O=Cc1ccc2cc[nH]c2c1 , thanks.
## Output Active

## Input Also need Cc1cc2cc(N)ccc2[nH]1 , thanks.
## Output Active

* * *

- Target Entity: UniProt P11509
- Sequence (P11509 whole entry): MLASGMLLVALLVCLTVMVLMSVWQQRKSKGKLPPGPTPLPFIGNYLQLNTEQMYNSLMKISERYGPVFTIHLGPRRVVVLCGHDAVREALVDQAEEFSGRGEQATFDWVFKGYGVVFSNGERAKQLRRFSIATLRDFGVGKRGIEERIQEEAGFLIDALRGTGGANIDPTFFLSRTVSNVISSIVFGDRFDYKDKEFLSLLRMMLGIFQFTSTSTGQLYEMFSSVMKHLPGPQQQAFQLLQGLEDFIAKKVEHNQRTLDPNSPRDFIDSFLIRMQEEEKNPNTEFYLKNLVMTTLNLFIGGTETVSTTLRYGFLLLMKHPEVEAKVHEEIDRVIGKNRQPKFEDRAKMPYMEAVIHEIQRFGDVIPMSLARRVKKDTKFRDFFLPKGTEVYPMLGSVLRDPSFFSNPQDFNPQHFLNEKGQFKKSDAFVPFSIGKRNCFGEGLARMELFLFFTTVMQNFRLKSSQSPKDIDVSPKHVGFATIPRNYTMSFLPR
- Assay Details: Irreversible inhibition of human CYP2A6 in baculovirus-infected insect cell system assessed as nicotine metabolism after 15 mins
Measured Property: pKi
Value format note: pKi is -log10 of concentration (mol/L); just state the number.

## Input Fill in the blank: the reported pKi of N#Cc1ccc2occc2c1 is ____.
## Output 6.70

* * *

- Target Entity: Cytochrome P450 2A6 (Homo sapiens)
- Assay Details: Inhibition of human CYP2A6 in baculovirus-infected insect cell system using […] as substrate preincubated for 10 mins by fluorescence assay
In this section we review reported pKi values for a set of compounds.
Value format note: pKi is -log10 of concentration (mol/L); just state the number.

# count of solved cases: 5
* O=Cc1ccc2[nH]ccc2c1 | 7.15
* N#Cc1ccc2occc2c1 | 7.00
* CNCc1cc2cccnc2s1 | 6.10
* O=Cc1cc2ccncc2s1 | 7.22
* O=Cc1c[nH]c2cccc(Br)c12 | 5.07

## Input Fill in the blank: the reported pKi of O=Cc1ccc2occc2c1 is ____.
## Output 7.15

* * *

- Target Entity: UniProt:P11509
- Assay Details: Inhibition of human CYP2A6 in baculovirus-infected insect cell system using […] as substrate incubated for 30 mins prior to substrate addition measured after 10 mins by fluorescence assay
Sorting guide: entries reporting IC50 beneath 600 nM go in the satisfied pile, the rest go in the not satisfied pile.

• O=Cc1cc2ccccc2s1 = not satisfied
• O=Cc1cc2cccnc2s1 = satisfied
• O=Cc1csc2ccc(Br)cc12 = satisfied

## Input Below 600 nM on IC50? Entry O=Cc1cc2ccccc2[nH]1
## Output not satisfied

## Input Also need O=Cc1ccc2occc2c1 , thanks.
## Output satisfied

* * *

- Target Entity: Cytochrome P450 2A6 (Homo sapiens)
- Assay Details: Inhibition of human CYP2A6 in baculovirus-infected insect cell system using […] as substrate preincubated for 10 mins by fluorescence assay
Measured Property: pIC50
Value format note: pIC50 is -log10 of concentration (mol/L); just state the number.

* CNCc1cc2cnccc2s1 | 5.82

For the next question, use this molecule.
## Input Fill in the blank: the reported pIC50 of NCc1csc2ccc(Br)cc12 is ____.
## Output 6.15

* * *

- Target Entity: Cytochrome P450 2A6 (Homo sapiens)
- Assay Details: Inhibition of human CYP2A6 in baculovirus-infected insect cell system using […] as substrate preincubated for 10 mins by fluorescence assay
In this section we review reported IC50 values for a set of compounds.
Quick note: give the figure in µM, leave out the unit.

# count of solved cases: 3
* O=Cc1csc2ccc(Br)cc12 | 5
* NCc1csc2ccc(Cl)cc12 | 0.4
* Cn1ccc2ccc(C=O)cc21 | 8.4

## Input Fill in the blank: the reported IC50 of NCc1cc2cnccc2s1 is ____.
## Output 1

## Input Also need NC(=S)c1csc2ccncc12 , thanks.
## Output 6.6

* * *

- Target Entity: Cytochrome P450 2A6 (Homo sapiens, UniProt P11509)
- Assay Details: Inhibition of human CYP2A6 in baculovirus-infected insect cell system using […] as substrate preincubated for 10 mins by fluorescence assay
In this section we review reported Ki values for a set of compounds.
Quick note: give the figure in µM, leave out the unit.

# count of solved cases: 3
* NCc1csc2ccc(Br)cc12 | 0.2
* NCc1csc2ccc(Cl)cc12 | 0.09
* O=Cc1c[nH]c2cc(Br)ccc12 | 3.3

## Input Fill in the blank: the reported Ki of O=Cc1cc2cnccc2s1 is ____.
## Output 0.07

## Input Also need CN(C)Cc1cc2cnccc2s1 , thanks.
## Output 0.6

## Input Also need NCc1cc2ccccc2s1 , thanks.
## Output 0.01

## Input Also need O=Cc1c[nH]c2ccccc12 , thanks.
## Output 11

* * *

- Target Entity: Cytochrome P450 2A6 (Homo sapiens)
- Assay Details: Inhibition of human CYP2A6 in baculovirus-infected insect cell system using […] as substrate preincubated for 10 mins by fluorescence assay
In this section we review reported pIC50 values for a set of compounds.
Value format note: pIC50 is -log10 of concentration (mol/L); just state the number.

# count of solved cases: 4
- O=Cc1ccc2cc[nH]c2c1: 5.82
- NCc1cc2ccncc2s1: 5.28
- CN(C)Cc1cc2cnccc2s1: 5.85
- O=C(Cl)c1csc2ccccc12: 3.57

## Input Fill in the blank: the reported pIC50 of O=Cc1ccc2sccc2c1 is ____.
## Output 6.05

## Input Also need N#Cc1ccc2occc2c1 , thanks.
## Output 5.80
